Target Or System: SQRDL
Experiment Summary: pooled miR-30 sensor sort-seq; sequence = guide strand; further: reference of the scale not given here
Setup Conditions: shRNA
# if value of sensor-assay potency score (higher = more potent) reaches -0.6, tag label 1; if it stays below, tag label 0

TTTGGCACCAGCACCCACCAGT : label 1
TTGGTCACCATTACCCATCAAG : label 0
TTGTCCTATCAAGTATTCCTGA : label 1
AATCTTCTCATAGTCCAGCTGG : label 1
TAACTGAATAATTCGACCCTAT : label 1
TTCTTTATCCACATCCACCCAA : label 0

Read the next record carefully.
API: above_or_equal(metric=sensor-assay potency score (higher = more potent), cutoff=-0.6) for item TTTCATATGAAATCACTTGGGT label 1

---

Target Or System: PLK1S1
Experiment Summary: pooled miR-30 sensor sort-seq; sequence = guide strand
Setup Conditions: shRNA
# if value of sensor-assay potency score (higher = more potent) reaches -0.7, tag met; if it stays below, tag not met

TTTGAGCATAGCATCTTCTTAA : met
TAGATGAAAAACTAGCTTCCGA : met
TATTCTGAAACTGGTATCGGAG : not met
TTCAGATTCACATATTTCCTTC : met

API: above_or_equal(metric=sensor-assay potency score (higher = more potent), cutoff=-0.7) for item TATTTCAGCTTAACTCTGCATG met

---

Listed here: items and their measured sensor-assay potency score (higher = more potent).
Target Or System: CLDN9
Experiment Summary: pooled miR-30 sensor sort-seq; sequence = guide strand
Setup Conditions: shRNA
Would you mind answering with just the numeric figure?

See these solved cases before continuing.
TCCACACACGTGGTACACTGGG : -1.23
TTCGTCCTCCACACACGTGGTA : -0.498
TTGTAGAAGTCCTGGATGATGG : -1.14

Consider the sequence TAGAAGTCCTGGATGATGGCGT and give its measured sensor-assay potency score (higher = more potent). 0.302

Consider the sequence ATGAGCACCAGGATGCCGGCGA and give its measured sensor-assay potency score (higher = more potent). -0.538

---

Target Or System: BCAR3
Experiment Summary: pooled miR-30 sensor sort-seq; sequence = guide strand
Setup Conditions: shRNA
Listed here: items and their measured sensor-assay potency score (higher = more potent).
Would you mind answering with just the numeric figure?

TCGCATTTGAAATTCAGTCTTG : -0.471

Consider the sequence TAGGAAGTCACCATCTCGCTGC and give its measured sensor-assay potency score (higher = more potent). 0.641

Consider the sequence TTGGTGAACAGTTCTTTTGCAC and give its measured sensor-assay potency score (higher = more potent). 0.174

Consider the sequence TTGAGGAACGGCACCTTGCAGG and give its measured sensor-assay potency score (higher = more potent). -0.594

Consider the sequence TTTTCTAACCTTGTGATCTGTG and give its measured sensor-assay potency score (higher = more potent). -0.0388

Consider the sequence TTGAATTTCTCATATCTCTCTG and give its measured sensor-assay potency score (higher = more potent). 0.778

Consider the sequence TGAATTTCTCATATCTCTCTGT and give its measured sensor-assay potency score (higher = more potent). 0.413

---

Target Or System: AP2B1
Experiment Summary: pooled miR-30 sensor sort-seq; sequence = guide strand
Setup Conditions: shRNA
# if value of sensor-assay potency score (higher = more potent) reaches -0.6, tag MET; if it stays below, tag NOT MET

Answered cases to consult:
TTCTGTAATTTTGTCTACCCGG : NOT MET
TCATCCTTCAAGCACTTGCGGA : NOT MET
TTAGTTCAAATATTTCTCCTTT : MET
AAAGAGAGAACTAACATCCTTC : MET

API: above_or_equal(metric=sensor-assay potency score (higher = more potent), cutoff=-0.6) for item TCGAACAAAGTCAACATCCACC NOT MET

API: above_or_equal(metric=sensor-assay potency score (higher = more potent), cutoff=-0.6) for item TTGTTTTTCACAGCCACCTGGA MET

API: above_or_equal(metric=sensor-assay potency score (higher = more potent), cutoff=-0.6) for item TTTCAGTTCTGCCAGAACCTGA NOT MET

API: above_or_equal(metric=sensor-assay potency score (higher = more potent), cutoff=-0.6) for item TTGTTTTGCAACTTGCTGGAAA MET

---

Listed here: items and their measured sensor-assay potency score (higher = more potent).
Target Or System: MUTED
Experiment Summary: pooled miR-30 sensor sort-seq; sequence = guide strand
Setup Conditions: shRNA
Would you mind answering with just the numeric figure?

See these solved cases before continuing.
TTGTTTACCATAAATCTCGAAA : -0.16
TAATAAACTATTGTTAACCCTG : 0.0836
TTTCTCACTAGCTACTAAGTGG : -0.662
TTTTTTGTCTACATTACTCATG : -0.517
TTTAACATGGACCATTTGCTGT : -1.08
TTTTCTGTGCTCTTCATCCACT : -0.826
TTGTCTACATTACTCATGCAGT : -0.842

Requested read-out sensor-assay potency score (higher = more potent), target or system MUTED, entry TTATCTTATAAAGCTTACCCAC -1.06

---

Target Or System: SLC6A17
Experiment Summary: pooled miR-30 sensor sort-seq; sequence = guide strand
Setup Conditions: shRNA
# if value of sensor-assay potency score (higher = more potent) reaches -0.7, tag Criterion met; if it stays below, tag Criterion not met

TATAGTAGAGTGTCTCTCCTGG : Criterion met
TACATCTCCATGTAGTCCTTTG : Criterion not met
ATATATAGTGCCACACACCGAT : Criterion met

API: above_or_equal(metric=sensor-assay potency score (higher = more potent), cutoff=-0.7) for item TACTGCAGCTTACTGTTCCAGG Criterion met

API: above_or_equal(metric=sensor-assay potency score (higher = more potent), cutoff=-0.7) for item TTTCTCAGCATTCTCGACCACA Criterion met

API: above_or_equal(metric=sensor-assay potency score (higher = more potent), cutoff=-0.7) for item TTGTAGGACACGGAGAGGGTGT Criterion met

API: above_or_equal(metric=sensor-assay potency score (higher = more potent), cutoff=-0.7) for item TTGTCCTGCTTATTGTAGCTGG Criterion not met

API: above_or_equal(metric=sensor-assay potency score (higher = more potent), cutoff=-0.7) for item TATATAGTGCCACACACCGATG Criterion not met

---

Listed here: items and their measured sensor-assay potency score (higher = more potent).
Target Or System: ANXA5
Experiment Summary: pooled miR-30 sensor sort-seq; sequence = guide strand
Setup Conditions: shRNA

See these solved cases before continuing.
TTCTTCTATGACGTGTATGTGT : -0.0894
TTTCTGTCAGTACTTTTTCATT : -1.52
TAAATTGCCAGAAGTCTCGCGG : 0.467
TTCTTCTTCATAAACTTGTTTG : -0.985
TTTCACAACAGCAAGGAGTAGT : -0.0711

Consider the sequence TTCTGATTTCAGGTCATCCAGA and give its measured sensor-assay potency score (higher = more potent). -0.946

Consider the sequence TAAACTTAGTAACATTAAGTAC and give its measured sensor-assay potency score (higher = more potent). -0.822

Consider the sequence TTCGAATAGATTTCACAACAGC and give its measured sensor-assay potency score (higher = more potent). -0.293

Consider the sequence TCAAATGAGACACACTTCGTGT and give its measured sensor-assay potency score (higher = more potent). -0.219

---

Target Or System: XKR5
Experiment Summary: pooled miR-30 sensor sort-seq; sequence = guide strand
Setup Conditions: shRNA
# if value of sensor-assay potency score (higher = more potent) reaches 0.2, tag 1.0; if it stays below, tag 0.0

Answered cases to consult:
TATCTGTGAAGTCTGAGGCTAG : 0.0
TAGCAGACAATTTTGACTGGAA : 1.0
TGATCTTAGACACATTTCCTGT : 0.0
TTGATCTTAGACACATTTCCTG : 1.0
TAAATTACCAGTGAGACACTGC : 1.0

Read the next record carefully.
API: above_or_equal(metric=sensor-assay potency score (higher = more potent), cutoff=0.2) for item TAAGTTATTCTACTATTCCTTT 0.0

---

Target Or System: CPNE5
Experiment Summary: pooled miR-30 sensor sort-seq; sequence = guide strand
Setup Conditions: shRNA
# if value of sensor-assay potency score (higher = more potent) reaches -0.2, tag condition met; if it stays below, tag condition not met

Answered cases to consult:
TTCTTGTCCAGCTTGTTGGCAC : condition not met
TTCTTCATGACCTCGGTCTTGT : condition met
TAATCCACAATGAACTTGCGCA : condition met
TTGTCCAGGAGGTTCCTGCAGG : condition not met
TAGTGCTGGATGATCTCTCCGA : condition met

API: above_or_equal(metric=sensor-assay potency score (higher = more potent), cutoff=-0.2) for item TTGTCGATGACTTCGGTGCGCC condition not met

API: above_or_equal(metric=sensor-assay potency score (higher = more potent), cutoff=-0.2) for item TTCTTCATTTTCTTTTTCGGGT condition not met

API: above_or_equal(metric=sensor-assay potency score (higher = more potent), cutoff=-0.2) for item TTGGTCAGGGATCTCTGCCAGC condition not met

API: above_or_equal(metric=sensor-assay potency score (higher = more potent), cutoff=-0.2) for item TAGATCAAAACGGAGGTTCTGC condition met

API: above_or_equal(metric=sensor-assay potency score (higher = more potent), cutoff=-0.2) for item TAACTGGTGGTGAACTCCCCAA condition not met

Data origin: the OligoGym collection
